Below, each entry is listed alongside its reported In vitro activity compared to native peptide (%) vs GIP.
# System Name: T1, human GIP receptor (human, UniProt P48546 22-466)
# T1 sequence (looked up): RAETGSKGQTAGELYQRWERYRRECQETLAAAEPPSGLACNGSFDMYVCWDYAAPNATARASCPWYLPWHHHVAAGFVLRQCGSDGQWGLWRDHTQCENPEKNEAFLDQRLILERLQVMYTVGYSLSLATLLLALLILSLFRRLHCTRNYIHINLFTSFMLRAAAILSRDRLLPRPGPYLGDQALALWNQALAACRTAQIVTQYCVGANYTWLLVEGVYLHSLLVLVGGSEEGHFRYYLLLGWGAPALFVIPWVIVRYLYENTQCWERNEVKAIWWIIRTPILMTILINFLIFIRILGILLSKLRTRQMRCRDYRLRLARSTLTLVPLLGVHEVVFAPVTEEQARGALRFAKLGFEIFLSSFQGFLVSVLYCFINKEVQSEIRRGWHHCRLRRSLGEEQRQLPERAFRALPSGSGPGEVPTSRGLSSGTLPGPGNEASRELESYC
# Experiment Description: cell-based or functional assay
Bridge positions count the residues as written; N and C are the ends. Square brackets hold non-standard residues; d marks the D form. Ends that are not written are not given here. * marks the point of attachment. Acetyl(2-(4-imidazolyl)) = O=C(Cc1c[nH]cn1)*; Aib = CC(C)(N)C(=O)O
Experimental Endpoint: In vitro activity compared to native peptide (%) vs GIP

Binder	Unit Descriptor	Bound Operator	Assay Value
Y[Aib]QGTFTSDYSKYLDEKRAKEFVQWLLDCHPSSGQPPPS (bridge 16-20) [Triple agonist of SEQ ID NO: 97]	%	=	2.6
{Acetyl(2-(4-imidazolyl))}-[Aib]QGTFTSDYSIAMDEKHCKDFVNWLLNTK (bridge 15-19) [Triple agonist of SEQ ID NO: 60]	%	=	18.2
Y[Aib]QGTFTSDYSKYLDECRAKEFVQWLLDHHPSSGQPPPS (bridge 16-20) [Triple agonist of SEQ ID NO: 21]	%	=	22.7
{Acetyl(2-(4-imidazolyl))}-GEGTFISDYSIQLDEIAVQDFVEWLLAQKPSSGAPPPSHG [Triple agonist of SEQ ID NO: 13]	%	<	0.1
{Acetyl(2-(4-imidazolyl))}-[Aib]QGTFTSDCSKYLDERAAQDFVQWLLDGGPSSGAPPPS [Triple agonist of SEQ ID NO: 63]	%	<	0.1
